- SYSTEM UNDER TEST: Enoyl-[acyl-carrier-protein] reductase [NADH] (Mycobacterium tuberculosis (strain ATCC 25618 / H37Rv), UniProt P9WGR1)
- Sequence (P9WGR1 whole entry): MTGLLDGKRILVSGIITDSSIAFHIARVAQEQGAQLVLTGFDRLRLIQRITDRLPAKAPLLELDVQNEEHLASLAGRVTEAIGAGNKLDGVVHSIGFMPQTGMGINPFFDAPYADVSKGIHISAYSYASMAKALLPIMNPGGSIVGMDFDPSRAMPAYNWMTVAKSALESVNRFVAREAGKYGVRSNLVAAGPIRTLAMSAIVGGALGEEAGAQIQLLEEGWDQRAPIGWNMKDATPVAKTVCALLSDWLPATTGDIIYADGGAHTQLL
- ASSAY OVERVIEW: Measurement of Inhibition Constants
- ASSAY CONTEXT: pH 6.8; 22 °C
- Method: Inhibition constants (Ki) were calculated by determining the kcat and Km (DDCoA) values at several fixed inhibitor concentrations. The inhibition data were analyzed using the standard equation for uncompetitive inhibition. For compounds with Ki values in the low nanomolar range, initial velocities were determined at a fixed substrate concentration and the data were fit to the equation: vi/v0 = (Km + S)/(Km + S[1 + I/ Ki]). […]
REPORTED METRIC: Ki (nM)
Answers are plain numbers, in nM.

// known answers, use as guide
Task: So what's the measured Ki for this one? CCCCCCCCc1ccc(Oc2ccccc2)c(O)c1
Output: 1.1

Task: So what's the measured Ki for this one? CCCCCCc1ccc(Oc2ccccc2)c(O)c1
Output: 9.4

Task: So what's the measured Ki for this one? CCCCCCCCCCCCCCc1ccc(Oc2ccccc2)c(O)c1
Output: 30.3

Task: So what's the measured Ki for this one? NC(=O)C1=CN([C@@H]2O[C@H](CO[P@@](=O)(O)O[P@@](=O)(O)OC[C@H]3O[C@@H](n4cnc5c(N)ncnc54)[C@H](O)[C@@H]3O)[C@@H](O)[C@H]2O)C=C[C@@H]1C(=O)c1ccncc1
Output: 0.75

Switching to the query record.
Task: So what's the measured Ki for this one? CCCCCc1ccc(Oc2ccccc2)c(O)c1
Output: 11.8

====

Would you mind telling me the reported pIC50 of each entry?
- SYSTEM UNDER TEST: Enoyl-[acyl-carrier-protein] reductase [NADH] (Mycobacterium tuberculosis (strain ATCC 25618 / H37Rv))
- ASSAY OVERVIEW: Enoyl-CoA Reductase Inhibition Assay
- ASSAY CONTEXT: pH 6.8; 22 °C
Numbers only, as −log10 of the molar value.

Task: So what's the measured pIC50 for this one? CCCCCCCCCCCCCCc1ccc(Oc2ccccc2)c(O)c1
Output: 6.82

Switching to the query record.
Task: So what's the measured pIC50 for this one? CCCCCCc1ccc(Oc2ccccc2)c(O)c1
Output: 7.96
